Provide the reported relative viability of each item.
system: HCC-44; assay: relative viability (nuclei count vs DMSO), 5 days (fraction); higher = more cells survive; details: first compound 0.08 µM
Numbers only.

[[record]]
compound = "Cc1cnc(-c2cnc(NCCNc3ccc(C#N)cn3)nc2-c2ccc(Cl)cc2Cl)[nH]1 + CC(=O)c1c(C)c2cnc(Nc3ccc(N4CCNCC4)cn3)nc2n(C2CCCC2)c1=O [Palbociclib] (partner 0.5 µM)"
numeric_value = 0.957


I would be grateful if you could provide relative viability for each of the following entries.
1. Cc1cnc(-c2cnc(NCCNc3ccc(C#N)cn3)nc2-c2ccc(Cl)cc2Cl)[nH]1 + Nc1nc2[nH]cc(CCc3ccc(C(=O)N[C@@H](CCC(=O)O)C(=O)O)cc3)c2c(=O)[nH]1 [Pemetrexed] (partner 0.2 µM)
2. Cc1cnc(-c2cnc(NCCNc3ccc(C#N)cn3)nc2-c2ccc(Cl)cc2Cl)[nH]1 + CS(=O)(=O)CCNCc1ccc(-c2ccc3ncnc(Nc4ccc(OCc5cccc(F)c5)c(Cl)c4)c3c2)o1 [Lapatinib] (partner 2 µM)
3. O=c1[nH]c2ccccc2n1C1CCN(CCCC(c2ccc(F)cc2)c2ccc(F)cc2)CC1 [Pimozide] + C[C@]1(O)C[C@@H](c2nc(-c3ccc4ccc(-c5ccccc5)nc4c3)c3c(N)nccn32)C1 [Linsitinib] (partner 1 µM)
4. Cc1cnc(-c2cnc(NCCNc3ccc(C#N)cn3)nc2-c2ccc(Cl)cc2Cl)[nH]1 + N=C(N)NC(=N)NCCc1ccccc1 [Phenformin] (partner 250 µM)

// result
0.633
0.99
0.635
0.209

Source listed as the supplement of paper PMC10307832.
